Data provenance: the supplement of paper PMC9170038

# Tested on: MS2 coat protein
# assay: apparent KD of MS2 coat protein; designed switch direction (-1 OFF switch, 1 ON switch): -1; higher = weaker reporter binding
# recorded-conditions: Eterna round: R95; input ligand: microRNA oligo, concentration not stated
measured-endpoint: apparent KD of MS2 coat protein (nM)

sequence-record	unit-string	value-observed
CAUGGCACGUAGGAUAUCUCGCAGCCCGGCUGCAGAGAAGGACGUACAUGAGGAUCACCCAUGUAUGAUCCAAA [Laquus] (puzzle: Exclusion 6)	nM	24.1
AAUAACAGAGGAUAUACUAUUUUAUGUGUUUGUUAUUUUAAACAUGAGGAUCACCCAUGUAGAAGGCUGAUUGA [JMF 72] (puzzle: Exclusion 2)	nM	41
AAACUCCCAACCACCGGGAACAUGAGGAUCACCCAUGUGGCGUGACUCAUACGGGCUUUUUGUUCGUUUUAUUCACG [Soesesqu] (puzzle: Sensor v3, turn-off variant 1)	nM	20.1

---

Recorded apparent KD of K4 kissing-loop reporter by entry
# System: K4 kissing-loop RNA reporter;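 also: bound reporter read as fluorescence of individual clusters on recovered sequencing chips by microscopy, with normalized cluster intensities fitted with a binding model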
# assay: apparent KD of K4 kissing-loop reporter; higher = weaker reporter binding
# recorded-conditions: Eterna round: R107; input ligand: FMN 200 uM

sequence-record	apparent KD of K4 kissing-loop reporter [nM]
GCGUUCAUGGCAGGAUAUAGGUAAAGGAGUGAUGUUCCUUAUGUUGCAUUUACUUAAUCCAACUCCCUAGAAGGGCCAUGAACGC	123
UAAGCUCUGACGGCCGCCACUGCACGUGAAUCAGUGGUGGCUAACAUGAGUGAUGUUCAUGUAAGCAGGACCGGGUCAGAGCUAA [KL-XTryp-B14 #analogue]	112
AAGUGUGUGGCGGCCGCCACUAGUCUCCAGUGAUGUUGGAGAUAUCACGUAAGUGAUAUCCGACAUAGGACCGGGCCAUAUAGAA [Same State - Tryptophan B (Freestyle 21)]	601
GAGGCCAAACGGAGUGAUGUUUCGUAUGAUACCAGCAGCGAAAGCUGCCCUUGGCAGCAUGCCACGGCCUCGGCAGGAAACUGCC	401
GGUGACGGCCAGGAGUGAUGUAUAGAAUAGCGAGGACCGGUACGGCCGCCACUCGUGAAGAAAAGGGAGUGAUGUUCCGUAAUGU [Kazoo]	87.8
UGAUACCAGACGGCCGCCACUCCCGUAAGUCAAAGACUUACGAAGAGAGUUAUCCAGUGAUGUUGGAGGACCGGGUCUGGUAUCU [FiskerMod 14 - Jieux - Exclusion - Tryptophan B]	210
AAUAAGCGCGGAAGGAGCGCCGCCAGUGAUGUUGGGAGUUAGAUACCAGUGAUGUUGGGCCGGCAGGUAGGUCGCCGCAAAGCUU [Exclusion Arginine B Gf 14]	208
GCUAUGGUAGGAAGGAGCGCGGACGAAAUAUAUCGAGUGAUGUUCGAAUAAUUAAAUAAAACGCAGGUAGGUCGCCUACUAUAGC [Arginine B K4 25]	116
UUAGGAGUGGAAGGAUAUCCUGGUGUGGGUGAUGUUAGUGAUGUUGAAAGUGCAGUGAUGUUGCGCGGAGAAGGUCCGGUGUUGA [BDazzled - #7 - Exc. FMN B]	180
UAGCGGUGGAGGCCACCGCUAUUCUGAGAAGGAGCGCAGAUGACUGCAGGUAGGUCGCUUAGAGCUUGCAGUGAUGUUGCAAGUU [Araatlaqu]	191
AAACAUUGGUCUGAUACCAGCUUGAUCGGUAAACGAUCUACUGGAGUGAUGUUCCUAAAUAGCCCUUGGCAGCAGACCGAUGAAA [MAT - Same State Theophlline B - Mod of Eli - D6]	187
ACACUAUCGUCAUAGACGGUAGUGAAAGCUCAGGAUAUGAGUGAUGUUAGAAGGGAGUAAAUCUUAGGUAUCGAAUAGAUACCAA [FmnA 7 #K4BetweenAptamer #OpenEnded]	1220

---

# Test system: MS2 coat protein
# assay: apparent KD of MS2 coat protein; higher = weaker reporter binding
# recorded-conditions: Eterna round: R107; input ligand: arginine 13.2 mM

sequence-record	apparent KD of MS2 coat protein (µM)
UAGCAUAGUACGGCCGCCACUCCUGGUUCCCGGCCGUGUGUAAGACAUGAGGAUCACCCAUGUAGGAGGACCGGGUAUCGCUUGC [theeternabot_sameState_MS2_Trp_B_22]	0.0125
UAAAACAUGAGGAUCACCCAUGUAAUUGAUACCAGAGUGAUGAUCCUCCCUUGGCAGCAAAACGCUGAUUGGAAACAAUCAGCGA [Mat - Same State Theophlline A - Mod of Eli - D25]	0.0501
UGGAGUAUCAGACAUGAGGAUCACCCAUGUCGAGGACCGGUACGGCCGCCACUCGGCAGUUUGCGUCCUCAGGUACUCCGGGUAA [Edlatearis]	0.0168
GGUAUUGGAACAGAUACCAGUAUCUGUUGAUCCUACAUGAGGAUCACCCAUGUUAGAAAGUACCCUUGGCAGCUGUAAUAAUGCC [Theo B Ex t1]	0.0527
GGUCUCUGGAGCGAUACCAGCUUGAGUGUACUGGCCAGGUACAUGAGGAUCACCCAUGUAAGCCCUUGGCAGCGCUGCAGAGACC [#1 Exclusion - Theophylline B Attempt #16 (HarryS)]	0.00975
CAAUUUAUAUGAAGGAGCGUCGAAAAUGGGUAAACAUGAGGAUCACCCAUGUAAAGGGAACGACAGGUAGGUCGCAUAUGGAUUG [AstromonsSSArgB#10]	0.123
AUCGUACCUGAGGAUACCAGCAUGUGAUCAUAACAUGAGGAUCACCCAUGUAAUCAGUGAUGCCCUUGGCAGCUUGGUCGGUACA [Same State - Theophylline B (Freestyle 10)]	0.0348
UUUUAACAUGAGGAUCACCCAUGUAAUGAUACCAGAGACGAAAGUCUCCCUUGGCAGCAUAUAUCAUUACUCAUAGGAAACUAUG [Theophylline A 6]	0.0354
GGGCACAUGAGGAUCACCCAUGUCCAACGGCGAGGACCGGUACGGCCGCCACUCGGUAUAAGCUUCGAAAAGGAGGAUCCUGCAG [theeternabot_sameState_MS2_Trp_A_35]	0.0204
GGGACAUGAGGAUCACCCAUGUACCGGUCCCGAGGACCGGUACGGCCGCCACUCGAUGACCUCAUAGUCUACUUGAGCAGUAGAC [Geeson]	0.0377
GCUACACAGGACCGUACUAAGGAUUCGCCUCGAGGACCGGUACGGCCGCCACUCGUUGCGCGACAUGAGGAUCACCCAUGUGUUC [theeternabot_exclusion_MS2_Trp_A_33]	0.0311

---

# Tested on: MS2 coat protein
# assay: apparent KD of MS2 coat protein; higher = weaker reporter binding
# recorded-conditions: Eterna round: R107; input ligand: tryptophan 2.4 mM

sequence-record	apparent KD of MS2 coat protein
UCGGGCAGAGCGGCCGCCACUGUUUGGCAUGCGGAUGAAGGAACAUGAGGAUCACCCAUGUAGAUUAGGACCGGGCUGGCGGAGA [jjhemullin]	36.5 nM
ACACAUGACGCGGCCGCCACUGCAACAUGAGGAUCACCCAUGUCACCCAUGUAUGACAUGAGGAUCAGGACCGGGCGUGUGUGGA [Same State Tryptophan B 3]	195 nM
UGACAUUGCUCAGAUACCAGACAUGAGCAUCAGCCAUGUGCCAACAAGUACAUAAUAAAUGUCCCUUGGCAGCUGAGCAAUGUCU [TheoBX 16 #MS2Left #Theo2 #AlternativeMS2]	12.7 nM
ACAUGAGGAUCACCCAUGUAAUAAUCAGAAGGAGCGUGGAAUAACACAGGUAGGUCGCUGAUGUUUUGUUAAAAUUAUUCGUGAA [JR_SSArginiA_Sub002]	14.3 nM
AAGUGGCACGGAAGGAGCGAGUUUACCUAGAUAACAUGAGGAUCACCCAUGUAUAAUGGGACUCAGGUAGGUCGCCGUUGUCACU [#29 Same State - Arginine B]	30.7 nM
GCUGUAAGUGCAGAUACCAGCGUGUUAUAUUUCUAAUGACAUGAGGAUCACCCAUGUAAAUGCCCUUGGCAGCUGCACUUACAGC [SSTHB #7]	16.2 nM

---

# System: MS2 coat protein
# assay: apparent KD of MS2 coat protein; designed switch direction (-1 OFF switch, 1 ON switch): -1; higher = weaker reporter binding
# recorded-conditions: input ligand: microRNA oligo, concentration not stated

sequence-record	unit-string	apparent KD of MS2 coat protein
UGAUCUAGCGGAGGAUAUACAUGAGGAUCACCCAUGUAUAGGCCAUGUGGUGACACGUGGAACAUGUAGAAGGCCGCUAGAUCU [JL ENG2 3.82] (Eterna round: R96, puzzle: Exclusion NG 2)	nM	73.3
CUGCUGGAGCUUCGCUUUGGUCGUACAUGAGGAUCACCCAUGUAGGAUAUGGUAAAAUUCGCCUGCUAGAAGGAUAGAGUGGUC [salish99_ExNG3_r04_619] (Eterna round: R96, puzzle: Exclusion NG 3)	nM	80.1
UGAGUGCUGCGAGGAUAUACAUGAGGAUCACCCAUGUAAGCCUGUGAGGCUUUGCCUCACAGGAUGUAGAAGGCGCAGUACUCU [JL ENG2 1.17] (Eterna round: R96, puzzle: Exclusion NG 2)	nM	9.19
GUCCUGCAGCUUUGCUGUAGGCGUACAUGAGGAUCACCCAUGUAGGAUAUGGUAGGCUUUGCUUACUAGAAGGAUAGAGUGAUC [JL EXNG3 1.28] (Eterna round: R96, puzzle: Exclusion NG 3)	nM	7.08
CAUAGUUACACAGGAUAUAGUACAUGAGGAUCACCCAUGUAAUAAAUGAGAAUUUCGAAUGUAUACUAGAAGGGUGAAAUCUAC [Ostracism 54 - Jieux - Exclusion NG 2] (Eterna round: R96, puzzle: Exclusion NG 2)	nM	144
AAGAAACAGCUAGGAUAUCAGACCAACAUGAGGAUCACCCAUGUCAAGGUCUUUCUUAGUAGGUUUGAGAAGGAGCCAUAAAUA [Xelequriqu] (Eterna round: R96, puzzle: Exclusion NG 2)	nM	9.11
GAAAAGGUAGGAUAUACGAAAACAAAGGGUAGAAACAAAACACAUGAGGAUCACCCAUGUAGAAGGACCAAAAG [salish99_ex2_r3_097] (Eterna round: R96, puzzle: Exclusion 2)	nM	30.8
AAGAAGAUCAGAGGAUAUGGAGCUGAAACGGCGCUAGAAGGCUGUCUAGUGUAACAUGAGGAUCACCCAUGUAGGGACCUCUAA [EX ng 1 4.3] (Eterna round: R96, puzzle: Exclusion NG 1)	nM	795
AAUGAUUGACGAGGAUAUUGUGGUAGAUCACGACGAGAAGGCGUUUGUCACAUGAGGAUCACCCAUGUGAGCCUUGUGGAUAGA [Ex NG1 #75] (Eterna round: R96, puzzle: Exclusion NG 1)	nM	20.1
